TEST SYSTEM: T1, PCSK9Δhelix (human PCSK9 lacking the P' helix, His-tagged) (human, UniProt Q8NBP7 31-152; Q8NBP7 168-692)
T1 construct: Construct M1-Q692 with an engineered TEV site (Y166 and R167 deleted, ENLYFQS inserted between R165 and A168); also called His-PCSK9Δhelix; C-terminal (His)8-tagged PCSK9Δhelix
T1 sequence (Q8NBP7 31-152, stated change not applied, chain 1 of 2): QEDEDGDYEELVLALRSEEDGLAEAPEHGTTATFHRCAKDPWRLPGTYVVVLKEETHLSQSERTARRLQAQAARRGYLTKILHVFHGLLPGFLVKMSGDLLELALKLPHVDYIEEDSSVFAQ
T1 sequence (Q8NBP7 other isoform, or with tags, fused parts or gaps mutant, chain 2 of 2): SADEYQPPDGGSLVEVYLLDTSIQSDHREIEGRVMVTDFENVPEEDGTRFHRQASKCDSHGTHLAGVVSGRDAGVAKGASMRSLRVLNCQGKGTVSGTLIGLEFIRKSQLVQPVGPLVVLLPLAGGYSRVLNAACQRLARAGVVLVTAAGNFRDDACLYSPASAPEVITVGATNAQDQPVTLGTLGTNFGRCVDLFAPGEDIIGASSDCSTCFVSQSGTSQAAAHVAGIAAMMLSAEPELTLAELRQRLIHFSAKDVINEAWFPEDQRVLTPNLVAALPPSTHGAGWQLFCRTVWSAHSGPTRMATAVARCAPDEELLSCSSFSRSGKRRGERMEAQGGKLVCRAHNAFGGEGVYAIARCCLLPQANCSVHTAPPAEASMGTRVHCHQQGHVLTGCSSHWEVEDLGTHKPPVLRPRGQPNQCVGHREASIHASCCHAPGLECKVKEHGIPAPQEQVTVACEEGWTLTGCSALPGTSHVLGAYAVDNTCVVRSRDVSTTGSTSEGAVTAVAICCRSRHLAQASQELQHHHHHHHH
RUN DESCRIPTION: TR-FRET competition; His-PCSK9Δhelix with Ab20 as competitor ligand
Square brackets hold non-standard residues; d marks the D form. hArg = N=C(N)NCCCC[C@H](N)C(=O)O
Checkbox rule: IC50 lower than 20 µM = label 1; IC50 not lower than 20 µM = label 0.

Find out if reported IC50 for Ac-MPWNLVRIGLLR-NH2 [Compound 51: Ac-MPWNLVRIGLLR-NH2] is less than 20 µM
label 1

Find out if reported IC50 for Ac-PWNLVRIGLLR-NH2 [Compound 52: Ac-PWNLVRIGLLR-NH2] is less than 20 µM
label 1

Find out if reported IC50 for Ac-WNLV[hArg]IGLLR-NH2 [Compound 192: Ac-WNLV(homoR)IGLLR-NH2] is less than 20 µM
label 1

Find out if reported IC50 for Ac-LMPWNLVRIGLLR-NH2 [Compound 50: Ac-LMPWNLVRIGLLR-NH2] is less than 20 µM
label 1

Find out if reported IC50 for Ac-DLMPWNLVRIGLLR-NH2 [Compound 35: Ac-DLMPWNLVRIGLLR-NH2] is less than 20 µM
label 1

Find out if reported IC50 for Ac-WNLVRIGLLR-NH2 [Compound 53: Ac-WNLVRIGLLR-NH2] is less than 20 µM
label 0
